condition set: in n-butanol, 283.15 K
property: solubility (mole fraction)
Answer using only a numeral; do not append any unit.

Inquiry: Sample `CC(C)[C@H](NC(=O)OCC1c2ccccc2-c2ccccc21)C(=O)O` — what was its solubility (mole fraction)?
Reply text: 0.0155

----------
condition set: in n-butanol, 298.15 K
property: solubility (mole fraction)
Answer using only a numeral; do not append any unit.

Inquiry: Sample `CC(C)[C@H](NC(=O)OCC1c2ccccc2-c2ccccc21)C(=O)O` — what was its solubility (mole fraction)?
Reply text: 0.0244

----------
condition set: in n-butanol, 308.15 K
property: solubility (mole fraction)
Answer using only a numeral; do not append any unit.

Inquiry: Sample `CC(C)[C@H](NC(=O)OCC1c2ccccc2-c2ccccc21)C(=O)O` — what was its solubility (mole fraction)?
Reply text: 0.0351
